Test system: biofilm-producing Staphylococcus epidermidis strains
assay.explanation: Biofilm eradication (MBEC Assay Kit)
Format: cell-based
run.parameters: clinical strain 79 (Table S4)
# MBEC annotations
Enter your answer as a number in µg/mL; do not include the unit.

| molecule | experimental.target | attribute.measured | observed |
| --- | --- | --- | --- |
| O=C(Nc1cccc(Cl)c1)NC1CCN(CCC(Oc2ccc(C(F)(F)F)cc2)c2cccs2)CC1 (stereo not shown) [Compound 25] | biofilm-producing Staphylococcus epidermidis strains | MBEC | 7.8 |
| O=S(=O)(NC1CCN(CCC(Oc2ccc(C(F)(F)F)cc2)c2cccs2)CC1)c1cccc(Cl)c1 (stereo not shown) [Compound 14] | biofilm-producing Staphylococcus epidermidis strains | MBEC | 31.25 |
| O=S(=O)(NC1CCN(CCC(Oc2ccc(C(F)(F)F)cc2)c2ccccc2)CC1)c1cccc(Cl)c1 (stereo not shown) [Compound 12] | biofilm-producing Staphylococcus epidermidis strains | MBEC | 31.25 |

// moving on: another record for MBEC
Sure, the documented MBEC for CC(=O)NC[C@H]1CN(c2ccc(N3CCOCC3)c(F)c2)C(=O)O1 [linezolid, reference compound] is 15.6
